# System: LOC_OS03G27990-cb004;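 note: purified Escherichia coli-expressed rice kinase domain construct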
# Test: thermal shift delta Tm vs DMSO control; higher = stronger stabilization (binding)
# Experimental setup: 12.5 µM; protein concentration 2 µM
Recorded thermal shift delta Tm split into classes bin 0 = under 0.2 °C, bin 1 = from 0.2 °C up to 0.6 °C, bin 2 = 0.6 °C and over

Solved entries (count: 5):
Please indicate the class for CCn1c(=O)c(-c2ccc(-c3cncs3)cc2Cl)cc2cnc(Nc3ccc(N4CCN(C)CC4)cc3)nc21 based on its thermal shift delta Tm.
bin 1

# bin lookup: classify Cc1ccc(C(=O)Nc2ccc(Oc3cc4cnn(C)c4cc3-c3cn[nH]c3)c(F)c2)c(=O)n1-c1ccc(F)cc1 by its thermal shift delta Tm
bin 2

Could you tell me which band O=C(Cc1ccc(-c2ccc(OCCN3CCOCC3)cc2)cn1)NCc1ccccc1 belongs to?
bin 1

Entry O=c1cc(N2CCOCC2)oc2c(-c3ccccc3)cccc12 belongs to which category?
bin 0

Kindly state the category for this compound: C=CC(=O)Nc1cccc(Nc2nc(Nc3ccc(NC4CN(CCF)C4)cc3OC)ncc2C(F)(F)F)c1
bin 1

Next:
Lab note: sort CN1CCN(c2ccc3nc(-c4c(N)c5c(F)cccc5[nH]c4=O)[nH]c3c2)CC1 [Dovitinib (TKI-258, CHIR-258)] into the matching thermal shift delta Tm band.
bin 2

Class (by measured thermal shift delta Tm) for CC(C)NC(=O)COc1cccc(-c2nc(Nc3ccc4[nH]ncc4c3)c3ccccc3n2)c1
bin 2

Classify this compound: COc1ccccc1-c1cc(Nc2cccc(CS(N)(=O)=O)c2)ncn1
bin 1

Which class does Cn1ncc(Cl)c1-c1cc(C(=O)N[C@H](CN)Cc2cccc(F)c2)sc1Cl fall in?
bin 0

Which of the defined bands does the recorded thermal shift delta Tm of CCCNC(=O)c1cn2ncnc(Nc3cc(C(=O)NC4CC4)ccc3C)c2c1C sit within?
bin 1

Which category does the recorded thermal shift delta Tm put FC(F)c1nc2ccccc2n1-c1nc(N2CCOCC2)nc(N2CCOCC2)n1 in?
bin 1

Which thermal shift delta Tm category applies to O=C(O)c1ccc(Nc2ncc3c(n2)-c2ccc(Cl)cc2C(c2c(F)cccc2F)=NC3)cc1 here?
bin 1

Hi there! Could you help me figure out the category for CCS(=O)(=O)c1cccc(-c2cc(C(=O)NC3CCN(C)CC3)c(C)c3[nH]c4ncc(C)cc4c23)c1 please?
bin 2

Which of the defined bands does the recorded thermal shift delta Tm of COc1cccc2cc(-c3nc([C@H]4CC[C@H](C(=O)O)CC4)n4ncnc(N)c34)[nH]c12 sit within?
bin 0

For the record O=c1cc(-c2cccc3c2Sc2ccccc2S3)oc(N2CCOCC2)c1 , report the class its thermal shift delta Tm corresponds to.
bin 0

Please let me know in which category the item CNC(=O)Nc1ccc(-c2nc(N3CC4CCC(C3)O4)c3cnn(C4CCC5(CC4)OCCO5)c3n2)cc1 belongs.
bin 0

These measurements were taken from the supplement of paper PMC9694430.
